testProtocol: Percentage unbound in human plasma at 5 uM after 5 hrs by equilibrium dialysis
Type: ADME, cell-free
assayEndpoint: fraction unbound at 5 h, 5 µM

{"smiles": "O=C(c1ccc(F)c(F)c1N[14c]1[14cH][14cH][14c](I)[14cH][14c]1F)N1CC(O)([C@@H]2CCCCN2)C1", "testValue": 0.065}

###

testProtocol: Ratio of drug level in blood to plasma in CD1 mouse at 10 uM after 30 mins
Format: ADME
assayEndpoint: blood plasma ratio at 0.5 h, 10 µM

{"smiles": "O=C(c1ccc(F)c(F)c1N[14c]1[14cH][14cH][14c](I)[14cH][14c]1F)N1CC(O)([C@@H]2CCCCN2)C1", "testValue": 1.27}
